molecular target: gD-KDR receptor on CHO cells (UniProt P35968 20-1356); test: cell-based or functional assay
readout_kind: Phosphorylation-Inducing Activity (KIRA), ratio to native VEGF (8-109) (fold)
Give just the numeric value; fold need not be written.

Phosphorylation-Inducing Activity (KIRA), ratio to native VEGF (8-109) reading for LK-VRB-6s (ligand, human, UniProt P15692-4 27-135, looked up) APMAEGGGQNHHEVVKFMDVYQRSYCHPIETLVDIFQEYPDEIEYIFKPSCVPLMRCGGCCNSEATECVPTEESNITMQIMRIKPHQGQHIGEMSFLQHNKCECRPKKD : 0.5

Phosphorylation-Inducing Activity (KIRA), ratio to native VEGF (8-109) reading for LK-VRB-5s (ligand, human, UniProt P15692-4 27-135, looked up) APMAEGGGQNHHEVVKFMDVYQRSYCHPIETLVDIFQEYPDEIEYIFKPSCVPLMRCGGCCNSEGRECVPTEESNITMQIMRIKPHQGQHIGEMSFLQHNKCECRPKKD : 0.5

Phosphorylation-Inducing Activity (KIRA), ratio to native VEGF (8-109) reading for LK-VRB-4s (ligand, human, UniProt P15692-4 27-135, looked up) APMAEGGGQNHHEVVKIEDVFERSICHPIETLVDIFQEYPDEIEYIFKPSCVPLMRCGGCCNDEGLECVPTEESNITMQIMRIKPHQGQHIGEMSFLQHNKCECRPKKD : 0.5

Phosphorylation-Inducing Activity (KIRA), ratio to native VEGF (8-109) reading for LK-VRB-1s* (ligand, human, UniProt P15692-4 27-135, looked up) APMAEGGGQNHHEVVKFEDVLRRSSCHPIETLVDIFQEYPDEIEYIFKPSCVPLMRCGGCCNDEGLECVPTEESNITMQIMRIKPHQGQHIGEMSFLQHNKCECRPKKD : 0.5

Phosphorylation-Inducing Activity (KIRA), ratio to native VEGF (8-109) reading for LK-VRB-3s (ligand, human, UniProt P15692-4 27-135, looked up) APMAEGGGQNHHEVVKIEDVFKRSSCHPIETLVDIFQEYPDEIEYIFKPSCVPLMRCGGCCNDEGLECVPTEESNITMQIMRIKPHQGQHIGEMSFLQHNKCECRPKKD : 1
